Reference source: patent US8933105B2

# Test system: HepG2
# METHOD: ATP content test (intracellular ATP content, ATPLite)
# Type: cell-based, Human
# CONDITION_DESCRIPTION: HepG2, 30 μM, culture for one day, relative value to control (without addition of drug)
ATP content (%, 30 μM) overview
Respond with the bare value in %.

Solved cases below.
>>> reported_value("CNCc1cn(S(=O)(=O)c2ccc(C#N)o2)c(-c2cccnc2F)c1F.O=C(O)/C=C/C(=O)O")
83.4
>>> reported_value("CNCc1cc(-c2cccnc2C#N)n(S(=O)(=O)c2ccccc2C#N)c1.Cl")
97.3
>>> reported_value("CNCc1cn(S(=O)(=O)c2ccoc2)c(-c2cccnc2F)c1F.Cl")
99.8

In the following, a different molecule is considered.
Query :: // lookup ATP content (%, 30 μM) for "CNCc1cc(-c2cccnc2C#N)n(S(=O)(=O)c2ccccc2)c1.Cl"
Result :: 97.1
